Molecular target: His-GST-TVMV-hRIPK1(1-324) (Homo sapiens (Human), UniProt Q13546)
Sequence (Q13546 1-324): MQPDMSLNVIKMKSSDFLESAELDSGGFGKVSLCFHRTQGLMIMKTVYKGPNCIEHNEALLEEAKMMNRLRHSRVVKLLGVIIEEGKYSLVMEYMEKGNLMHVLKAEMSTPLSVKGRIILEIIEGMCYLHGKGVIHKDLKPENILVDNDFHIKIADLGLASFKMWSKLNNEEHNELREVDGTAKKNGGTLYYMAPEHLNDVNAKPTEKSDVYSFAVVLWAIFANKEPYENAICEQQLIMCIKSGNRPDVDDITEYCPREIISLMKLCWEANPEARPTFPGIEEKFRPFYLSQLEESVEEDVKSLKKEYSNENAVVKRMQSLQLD
Assay: RIPK1 HTRF Binding Assay
Settings: HTRF binding, 1 h at rt; TFA; read-out: RIPK1 (IC50)
Method: A solution was prepared containing 0.2 nM Anti GST-Tb (Cisbio, 61GSTTLB), 90.6 nM probe and 1 nM His-GST-TVMV-hRIPK1(1-324) in FRET Buffer (20 mM HEPES, 10 mM MgCl2, 0.015% Brij-35, 4 mM DTT, 0.05 mg/mL BSA). […] FRET was measured using the EnVision plate reader (Excitation: 340 nm, Emission: 520 nm/[…]). Total signal (0% inhibition) was calculated from wells containing 10 nL DMSO only. […]
pIC50: −log10 of the molar value. Where a name gives a salt, the structure may show the parent alone.
This section presents compounds with their documented pIC50 values.

{"compound": "COc1ncc(-c2ccc3nc(NC(C)=O)cn3n2)cc1C(=O)NC(C)c1c(F)cccc1OCC1CC1 (stereo not shown) [Example 122, TFA]", "pIC50": 8.30}
{"compound": "COc1nc(C)c(-c2ccc3nc(NC(C)=O)cn3n2)cc1C(=O)NC(C)c1cc(OC(F)(F)F)ccc1F (stereo not shown) [Example 279, TFA]", "pIC50": 7.33}
{"compound": "COc1ncc(-c2ccc3nc(NC(C)=O)cn3n2)cc1C(=O)NC(C)c1c(F)cccc1OCC1CC1 (stereo not shown) [Example 124, TFA]", "pIC50": 8.22}
{"compound": "COc1nc(C)c(-c2ccc3nc(NC(C)=O)cn3n2)cc1C(=O)NC(C)c1cc(OC(F)(F)F)ccc1F (stereo not shown) [Example 278, TFA]", "pIC50": 8.22}

###

biological target: His-GST-TVMV-hRIPK1(1-324) (Homo sapiens (Human)); assay: RIPK1 HTRF Binding Assay; details: HTRF binding, 1 h at rt; read-out: RIPK1 (IC50)
result-type: IC50 (nM)

{"compound": "COc1ncc(-c2ccc3nc(NC(C)=O)cn3n2)cc1C(=O)NC(C)c1cccc(OC(F)(F)F)c1 (stereo not shown) [Example 123]", "assay-value": 37}
{"compound": "CC(=O)Nc1cn2nc(-c3ccc(C)c(C(=O)NCc4cc(F)ccc4C(=O)N4CCCCC4)c3)ccc2n1", "assay-value": 8}
{"compound": "COc1ncc(-c2ccc3nc(NC(=O)CO)cn3n2)cc1C(=O)NCc1cc(C(F)(F)F)ccc1F", "assay-value": 96}
{"compound": "COc1ncc(-c2ccc3nc(NC(C)=O)cn3n2)cc1C(=O)NC(C)c1ccccc1OC(F)(F)F (stereo not shown) [Example 139]", "assay-value": 15}
{"compound": "[2H]C([2H])(NC(=O)c1cnc(C)c(-c2ccc3nc(NC(C)=O)cn3n2)c1)c1cc(OC(F)(F)F)ccc1F", "assay-value": 19}
{"compound": "CC(=O)Nc1cn2nc(-c3cc(C(=O)N[C@H](C)c4cc(C(F)(F)F)ccc4F)c(C)nc3C)ccc2n1", "assay-value": 15}
{"compound": "[2H]C([2H])([2H])Oc1nc(C)c(-c2ccc3nc(NC(C)=O)cn3n2)cc1C(=O)NCc1ccc(F)c(F)c1OCC1CC1", "assay-value": 10}

###

biological target: His-GST-TVMV-hRIPK1(1-324) (Homo sapiens (Human), UniProt Q13546); assay: RIPK1 HTRF Binding Assay; details: HTRF binding, 1 h at rt; read-out: RIPK1 (IC50)
pIC50: −log10 of the molar value. Structures can show the parent of a compound that is named as a salt.

{"compound": "COc1nc(C)c(-c2ccc3nc(NC(C)=O)cn3n2)cc1C(=O)NCc1cccc(C(F)(F)F)c1 [Example 305]", "pIC50": 7.39}
{"compound": "CC(=O)Nc1cn2nc(-c3cc(F)c(C)c(C(=O)NCc4cccc(OC(F)(F)F)c4F)c3)ccc2n1 [Example 361]", "pIC50": 7.38}
{"compound": "CC(=O)Nc1cn2nc(-c3cnc(C)c(C(=O)NCc4c(F)cccc4OCC4CC4)c3)ccc2n1 [Example 226]", "pIC50": 8.22}
{"compound": "CC(=O)Nc1cn2nc(-c3cnc(C)c(C(=O)NCc4cc(C(F)(F)F)ccc4F)c3)ccc2n1 [Example 206, TFA]", "pIC50": 7.92}
{"compound": "CC(=O)Nc1cn2nc(-c3cc(C(=O)NCc4ccccc4OC(F)(F)F)c(C)nc3C)ccc2n1 [Example 89]", "pIC50": 7.42}
{"compound": "[2H]C([2H])([2H])Oc1ncc(-c2ccc3nc(NC(C)=O)cn3n2)cc1C(=O)NC(C)c1ccccc1OC(F)(F)F (stereo not drawn) [Example 57]", "pIC50": 8.00}
{"compound": "COc1nc(C)c(-c2ccc3nc(NC(C)=O)cn3n2)cc1C(=O)N(C)Cc1ccccc1OC(F)(F)F [Example 283]", "pIC50": 7.80}
{"compound": "CC(=O)Nc1cn2nc(-c3cnc(C)c(C(=O)NCC(C)(O)Cc4ccc(F)cc4)c3)ccc2n1 (stereo not drawn) [Example 356]", "pIC50": 6.82}
{"compound": "COc1ncc(-c2ccc3nc(NC(C)=O)c(C)n3n2)cc1C(=O)NCCC(C)c1ccccc1 (stereo not drawn) [Example 256, TFA]", "pIC50": 8.05}
{"compound": "Cc1ncc(-c2ccc3nc(NC(=O)CO)cn3n2)cc1C(=O)NCc1cc(C(F)(F)F)ccc1F [Example 183]", "pIC50": 6.78}
{"compound": "COc1nc(C)c(-c2ccc3nc(NC(C)=O)cn3n2)cc1C(=O)NC(C)c1cc(C(F)(F)F)ccc1F (stereo not drawn) [Example 276]", "pIC50": 7.55}
{"compound": "CC(=O)Nc1cn2nc(-c3cnc(C)c(C(=O)N(C)[C@H](C)c4cc(OC(F)(F)F)ccc4F)c3)ccc2n1 [Example 330]", "pIC50": 7.34}
{"compound": "CC(=O)Nc1cn2nc(-c3cc(C(=O)NCc4cc(F)cc(F)c4OC4CCOC(C)C4)c(C)nc3C)ccc2n1 (stereo not drawn) [Example 62]", "pIC50": 7.96}
{"compound": "[2H]C([2H])([2H])Oc1nc(C)c(-c2ccc3nc(NC(C)=O)cn3n2)cc1C(=O)NCc1cc(F)cc(F)c1OC([2H])([2H])C1CC1 [Example 174]", "pIC50": 8.52}
{"compound": "CC(=O)Nc1cn2nc(-c3cnc(C)c(C(=O)N4CCCC(O)(Cc5ccc(F)cc5)C4)c3)ccc2n1 (stereo not drawn) [Example 357]", "pIC50": 6.47}

###

molecular target: His-GST-TVMV-hRIPK1(1-324) (Homo sapiens (Human), UniProt Q13546); assay: RIPK1 HTRF Binding Assay; conditions: HTRF binding, 1 h at rt; read-out: RIPK1 (IC50)
Counter-ions that a name gives are not always drawn.
Threshold-based label: IC50 under 0.04 µM gives 1, IC50 not under 0.04 µM gives -1.

{"compound": "[2H]C([2H])(NC(=O)c1cc(-c2ccc3nc(NC(C)=O)cn3n2)c(C)nc1C)c1cccc(C(F)(F)F)c1 [Example 74, TFA]", "assayed-system": "His-GST-TVMV-hRIPK1(1-324) (Homo sapiens (Human), UniProt Q13546)", "category": -1}
{"compound": "CC(=O)Nc1cn2nc(-c3cc(C(=O)NCC[C@H](O)c4ccc(Cl)cc4)c(C)nc3C)ccc2n1", "assayed-system": "His-GST-TVMV-hRIPK1(1-324) (Homo sapiens (Human), UniProt Q13546)", "category": 1}
{"compound": "CC(=O)Nc1cn2nc(-c3cnc(C)c(C(=O)NCc4cc(F)cc(F)c4OC4CCOCC4)c3)ccc2n1", "assayed-system": "His-GST-TVMV-hRIPK1(1-324) (Homo sapiens (Human), UniProt Q13546)", "category": 1}
{"compound": "CCc1ncc(-c2ccc3nc(NC(C)=O)cn3n2)cc1C(=O)N[C@H](C)c1cc(OC(F)(F)F)ccc1F", "assayed-system": "His-GST-TVMV-hRIPK1(1-324) (Homo sapiens (Human), UniProt Q13546)", "category": 1}
{"compound": "[2H]C([2H])([2H])Oc1ncc(-c2ccc3nc(NC(C)=O)cn3n2)cc1C(=O)NCc1c(F)cccc1OCC(F)(F)F", "assayed-system": "His-GST-TVMV-hRIPK1(1-324) (Homo sapiens (Human), UniProt Q13546)", "category": 1}
{"compound": "COc1ncc(-c2ccc3nc(NC(C)=O)cn3n2)cc1C(=O)NCc1cc(F)cc(F)c1OC1CC1", "assayed-system": "His-GST-TVMV-hRIPK1(1-324) (Homo sapiens (Human), UniProt Q13546)", "category": 1}
{"compound": "Cc1ncc(-c2ccc3nc(NC(=O)CO)cn3n2)cc1C(=O)N[C@H](C)c1cc(C(F)(F)F)ccc1F [Example 182, TFA]", "assayed-system": "His-GST-TVMV-hRIPK1(1-324) (Homo sapiens (Human), UniProt Q13546)", "category": -1}
{"compound": "[2H]C([2H])([2H])Oc1ncc(-c2ccc3nc(NC(C)=O)cn3n2)cc1C(=O)N[C@H](C)c1cc(OC(F)(F)F)ccc1F", "assayed-system": "His-GST-TVMV-hRIPK1(1-324) (Homo sapiens (Human), UniProt Q13546)", "category": -1}
{"compound": "CC(=O)Nc1cn2nc(-c3cnc(C)c(C(=O)NCc4c(F)cccc4OCC(F)(F)F)c3)ccc2n1", "assayed-system": "His-GST-TVMV-hRIPK1(1-324) (Homo sapiens (Human), UniProt Q13546)", "category": 1}
{"compound": "CC(=O)Nc1cn2nc(-c3cc(F)cc(C(=O)NCC[C@@H](O)c4ccc(Cl)cc4)c3)ccc2n1", "assayed-system": "His-GST-TVMV-hRIPK1(1-324) (Homo sapiens (Human), UniProt Q13546)", "category": 1}
{"compound": "COc1ncc(-c2ccc3nc(NC(=O)C(C)C)cn3n2)cc1C(=O)NCc1ccccc1OC(F)(F)F", "assayed-system": "His-GST-TVMV-hRIPK1(1-324) (Homo sapiens (Human), UniProt Q13546)", "category": -1}
{"compound": "CC(=O)Nc1cn2nc(-c3cncc(C(=O)NCc4ccccc4OCC4CC4)c3)ccc2n1", "assayed-system": "His-GST-TVMV-hRIPK1(1-324) (Homo sapiens (Human), UniProt Q13546)", "category": 1}
{"compound": "CCC(=O)Nc1cn2nc(-c3cnc(OC)c(C(=O)NCc4ccc(F)c(F)c4OCC4CC4)c3)ccc2n1", "assayed-system": "His-GST-TVMV-hRIPK1(1-324) (Homo sapiens (Human), UniProt Q13546)", "category": 1}
{"compound": "Cc1c(F)cc(-c2ccc3nc(NC(=O)CN(C)C)cn3n2)cc1C(=O)NCC[C@H](O)c1ccc(Cl)cc1", "assayed-system": "His-GST-TVMV-hRIPK1(1-324) (Homo sapiens (Human), UniProt Q13546)", "category": 1}
